TEST_METHOD_NOTES: NCI Yeast Anticancer Drug Screen. Data for the rad50 strain (AID 155);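 note: 0% = growth of vehicle-only cultures of the same strain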
CONDITION_INFO: S. cerevisiae rad50 strain growth inhibition; at 50.0 µM (retest, dose inferred, filed as 5.0); active compounds read high
Protocol: Growth inhibition of yeast strains with defined genetic alterations is measured as a screen for potential anti-cancer activity. Selected strains with alterations in DNA damage repair or cell cycle control were exposed to compounds and growth inhibition was measured relative to vehicle treated controls. The strain used in this assay is rad50
Compounds without any hit were thinned out: in the full panel of roughly 79,000, 15% have a hit. Active and inactive are the calls of the source. Cut-off read from the data, not from the text of the source: active = growth inhibition above about 70%; inactive = the rest.
Provide the recorded growth inhibition for the entries that follow.

Quick note, growth inhibition for CC1(c2ccc(O)cc2)CC(C)(c2ccc(O)cc2)C1 (stereo not given) landed at 93% (active)

Quick note, growth inhibition for Oc1ccc(C2Oc3ccccc3C=C2c2ccccc2)cc1 (stereo not given) landed at 98% (active)

Quick note, growth inhibition for CCCOC(=O)C#CC(=O)OCCC landed at 96% (active)

Quick note, growth inhibition for COc1cc2c(cc1O)CCN[C@@]21CS[C@H]2c3c(OC(C)=O)c(C)c4c(c3C(COC1=O)N1C2C2c3c(cc(C)c(OC)c3O)CC([C@@H]1O)N2C)OCO4 (stereo not given in full) landed at 99% (active)

Quick note, growth inhibition for CCC(=O)C(CCN(CC)CC)(CCN(CC)CC)c1ccccc1 landed at -5% (inactive)

###

TEST_METHOD_NOTES: NCI Yeast Anticancer Drug Screen. Data for the sgs1 mgt1 strain (AID 161);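 note: 0% = growth of cultures given vehicle only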
CONDITION_INFO: S. cerevisiae sgs1 mgt1 strain, at 5.0 µM (retest, dose inferred, filed as 0.5), active compounds read high
About 79,000 compounds went through this panel and 15% of them were active in at least one assay; those are over-represented in the sample as a whole.
PROPERTY: growth inhibition (%)
Numeric only. Scale: %

Quick note, growth inhibition for C=C(CN(C)C)C(=O)c1ccc(C)cc1C landed at 64

Quick note, growth inhibition for CCOC(=O)c1c(C)[nH]c(C(=O)C(N)C(=O)OCC)c1C (stereo not given) landed at 7

Quick note, growth inhibition for Clc1nc2ccccc2nc1N1CCCCCC1 landed at 1

Quick note, growth inhibition for CCOC(=O)c1c[nH]cc1-c1cn(S(=O)(=O)c2ccccc2)cc1C landed at 69

Quick note, growth inhibition for CCCCCCCCCCCCCCCCCc1nnc(N)o1 landed at 18

Quick note, growth inhibition for COc1ccc(NS(=O)(=O)c2ccc(N=Cc3c4ccccc4nc4cc(Cl)ccc34)cc2)nn1 landed at 17

Quick note, growth inhibition for O=[N+]([O-])/C(C=Nc1ccccc1)=C/Nc1ccccc1 landed at 2

Quick note, growth inhibition for COc1ccc(CCN2C(=O)C(=O)N(C3CCCCC3)C2=O)cc1OC landed at -3

Quick note, growth inhibition for O=C(c1ccccc1)N(C(=S)N(C(=O)c1ccccc1)c1ccccc1)c1ccccc1 landed at 1

Quick note, growth inhibition for CCc1ccccc1NC1=C(Cl)C(=O)c2ccccc2C1=O landed at 100

Quick note, growth inhibition for OCC(c1ccccc1)c1ccccc1 landed at 41

Quick note, growth inhibition for NNc1c(F)c(F)c(-c2c(F)c(F)c(NN)c(F)c2F)c(F)c1F landed at 23

Quick note, growth inhibition for CN(NC(=O)/C(=C/c1cc(Cl)cc(Cl)c1O)NC(=O)c1ccccc1)c1cnn(-c2ccccc2)c(=O)c1Cl landed at -4

Quick note, growth inhibition for CCCCCCCC/C=C\CCCCCCCC(=O)NCCN(C)C landed at 33

Quick note, growth inhibition for Cc1ccc2c(c1)C1C(CC2)C2C(=O)OC(=O)C2C2CCc3ccc(C)cc3C21 (stereo not given) landed at 6

Quick note, growth inhibition for Cc1cc(Br)ccc1NC(=O)/C=C/C(=O)O landed at -17

Quick note, growth inhibition for C#CCCOC(=O)CC1=C(C)/C(=C/c2ccc(S(C)=O)cc2)c2ccc(F)cc21 (stereo not given) landed at 65

Quick note, growth inhibition for CC/C(=C(\CC)c1ccc(O)c(CN(CCO)CCO)c1)c1ccc(O)cc1 landed at -2

Quick note, growth inhibition for CCOC(=O)C1=C(Nc2ccc(Cl)c(Cl)c2)OC/C1=N\NS(=O)(=O)c1ccc(C)cc1 landed at 22

Quick note, growth inhibition for COc1cc2c(c(C)c1O)[C@H]1COc3ccccc3[C@H]1O2 landed at 17

Quick note, growth inhibition for CCOC(=O)c1cnn(-c2ccccc2)c1N landed at 18

Quick note, growth inhibition for CCOc1ccc2c(c1)[n+]([O-])c(-c1ccc([N+](=O)[O-])cc1)c(N)[n+]2[O-] landed at 38

Quick note, growth inhibition for CC(CO)(CO)N=Cc1cc(I)cc(I)c1O landed at 86

Quick note, growth inhibition for CCCCCCCCCCCCCCCCOS(=O)(=O)O landed at 49

Quick note, growth inhibition for COC(=O)C(=O)C(/C=N/C(=S)NCCc1ccc(OC)c(OC)c1)=C(/O)c1ccc([N+](=O)[O-])cc1 landed at 13

Quick note, growth inhibition for COC(=O)/C(=C\c1cn(C(C)=O)c2ccccc12)P(=O)(OC)OC landed at 2

Quick note, growth inhibition for C=[CH][Sn]([CH]=C)([S]c1cccc2cccnc12)[S]c1cccc2cccnc12 landed at 27

Quick note, growth inhibition for Cc1cccc(Cc2cccc(Cl)c2)c1O landed at 3

Quick note, growth inhibition for CN1CC[N+](C)(Cc2ccc(C[N+]3(C)CC[N+](C)(Cc4ccc(CCl)cc4)CC3)cc2)CC1 (stereo not given) landed at 2

Quick note, growth inhibition for C/C(=N\N(C)C(=S)Nc1ccccc1)c1ccccn1 landed at -6

Quick note, growth inhibition for COc1ccc(/C=C2\CCC(CN3CCOCC3)C2=O)cc1 (stereo not given) landed at 55

Quick note, growth inhibition for COc1cccc(C2Nc3ccccc3C(=O)N2N2CCOCC2)c1 (stereo not given) landed at 1

Quick note, growth inhibition for CN(C)Cc1cc(N=Nc2ccc(Cl)c(Cl)c2)ccc1O landed at -20

Quick note, growth inhibition for Cc1nc2c(Cl)cccc2c2ccccc12 landed at 5

Quick note, growth inhibition for CC1COC(c2cn[nH]c2C(N)=O)C1O (stereo not given) landed at 7

Quick note, growth inhibition for OC(C1CCCCN1)C1CC(c2ccccc2)Nc2c(Cl)cc(Cl)cc21 (stereo not given) landed at -1

Quick note, growth inhibition for O=C(c1ccccc1)c1cccc2ccccc12 landed at -2

Quick note, growth inhibition for O=C1C=CC(Nc2cccc([N+](=O)[O-])c2)C1Nc1cccc([N+](=O)[O-])c1 (stereo not given) landed at -11

Quick note, growth inhibition for CC(O)(c1ccccc1)c1ccccc1S(=O)(=O)Nc1ccccc1 (stereo not given) landed at -4

Quick note, growth inhibition for CN(CCCN(CCO)CCO)C1CC(C)(C)N(O)C(C)(C)C1 landed at 7

Quick note, growth inhibition for COc1ccc(CSC(=S)Nc2ccccc2C(F)(F)F)cc1 landed at 1

Quick note, growth inhibition for CC(C)C1=CC(=O)C(C)(C2C(O)CC3(C)C4CC=C5C(CCC(O)C5(C)C)C4(C)C(=O)CC23C)O1 (stereo not given) landed at 64

Quick note, growth inhibition for Cc1cccc(Cc2ccc(Cl)cc2)c1O landed at 5

Quick note, growth inhibition for Oc1c(Cl)cc(Cl)cc1C=NCCSc1ccc(Cl)cc1 landed at 27

Quick note, growth inhibition for O=C(C[n+]1ccccc1)N=N/C(C(=O)Nc1c(Cl)c(O)c2ccccc2c1O)=C1/C(=O)Oc2cc(O)ccc2C1=O landed at 19

The measurements presented in this section are drawn from PubChem BioAssay (NCI).
